ASSAY TARGET: Epidermal growth factor receptor (Homo sapiens) (UniProt P00533)
Sequence (P00533 whole entry, looked up): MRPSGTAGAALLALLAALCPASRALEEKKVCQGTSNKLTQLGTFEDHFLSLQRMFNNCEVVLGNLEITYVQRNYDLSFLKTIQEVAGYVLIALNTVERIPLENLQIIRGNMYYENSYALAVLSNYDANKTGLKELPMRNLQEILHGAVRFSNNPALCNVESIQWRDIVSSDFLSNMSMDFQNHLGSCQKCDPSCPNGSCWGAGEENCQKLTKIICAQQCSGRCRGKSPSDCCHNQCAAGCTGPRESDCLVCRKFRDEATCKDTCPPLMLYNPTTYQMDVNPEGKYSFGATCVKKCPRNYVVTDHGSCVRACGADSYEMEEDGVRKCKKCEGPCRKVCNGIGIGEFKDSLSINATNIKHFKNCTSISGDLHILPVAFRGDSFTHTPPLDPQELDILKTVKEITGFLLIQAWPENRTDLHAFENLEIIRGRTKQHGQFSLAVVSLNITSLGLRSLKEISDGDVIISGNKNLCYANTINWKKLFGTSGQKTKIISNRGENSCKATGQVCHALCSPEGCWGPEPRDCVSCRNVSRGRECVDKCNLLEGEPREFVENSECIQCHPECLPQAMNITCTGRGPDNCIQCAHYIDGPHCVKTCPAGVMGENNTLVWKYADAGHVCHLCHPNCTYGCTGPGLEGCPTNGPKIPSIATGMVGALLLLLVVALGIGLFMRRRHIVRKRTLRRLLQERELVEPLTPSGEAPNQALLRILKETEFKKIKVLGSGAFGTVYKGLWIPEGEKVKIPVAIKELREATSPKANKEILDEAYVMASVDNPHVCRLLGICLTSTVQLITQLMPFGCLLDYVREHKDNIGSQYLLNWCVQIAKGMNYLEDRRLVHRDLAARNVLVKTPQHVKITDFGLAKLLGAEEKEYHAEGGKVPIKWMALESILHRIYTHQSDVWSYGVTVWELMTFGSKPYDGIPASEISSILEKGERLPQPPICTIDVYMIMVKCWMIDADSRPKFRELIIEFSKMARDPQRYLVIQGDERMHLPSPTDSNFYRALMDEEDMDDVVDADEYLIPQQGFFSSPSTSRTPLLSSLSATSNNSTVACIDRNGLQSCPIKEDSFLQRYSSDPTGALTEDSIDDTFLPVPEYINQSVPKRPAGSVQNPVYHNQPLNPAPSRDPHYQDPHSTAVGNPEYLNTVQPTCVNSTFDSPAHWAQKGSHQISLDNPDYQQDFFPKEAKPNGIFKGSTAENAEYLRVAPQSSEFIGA
ASSAY TEXT: EGFR binders on small-molecule microarrays, primary screen, biochemical, small-molecule microarray, 635 nm fluorescence (AID 1104);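 further: score merges 667 nm emission intensity with spot signal to noise over triplicate slides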
TEST CONDITIONS: EGFR binding, higher = more signal
Measured composite z-score by item
PARAMETER: composite z-score

[
  {
    "COMPOUND": "O=C1OCC=C[C@H]2OC34C=CCN(Cn5nnc6ccccc65)C(=O)[C@H]3N(CCO)C(=O)[C@@H]4[C@@H]12 (stereo partly drawn)",
    "EXPERIMENTAL VALUE": -1.09
  },
  {
    "COMPOUND": "O=C1O[C@H](c2ccccc2)[C@H](c2ccccc2)N2[C@H]1[C@@H](C(=O)O)[C@]1(C(=O)Nc3ccccc31)[C@H]2c1ccc(OCCO)cc1",
    "EXPERIMENTAL VALUE": -0.055
  },
  {
    "COMPOUND": "COCCOC(=O)N1C(=O)[C@@]2(c3cc(C#CCNC(N)=O)ccc31)[C@H](c1ccc(O)cc1)N1[C@H](c3ccccc3)[C@H](c3ccccc3)OC(=O)[C@H]1[C@@H]2C(=O)N1CCc2cc(OC)c(OC)cc2C1",
    "EXPERIMENTAL VALUE": 0.292
  }
]

###

ASSAY TARGET: Pro-neuregulin-1, membrane-bound isoform (Homo sapiens)
ASSAY TEXT: NRG1 binders on small-molecule microarrays, primary screen, psychiatric disease protein project, biochemical, small-molecule microarray, fluorescence 635/667 (AID 1075);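 further: score combines 667 nm spot fluorescence with signal to noise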
TEST CONDITIONS: NRG1 binding, 635 nm fluorescence, higher = more signal
# composite z-score >= 0.8 gives t, anything below gives f

[
  {
    "MOLECULE": "CCOC(=O)C1=CCC(c2ccncc2)N(S(=O)(=O)c2ccc(C)cc2)C1 (stereo not drawn)",
    "ANSWER LABEL": "t"
  },
  {
    "MOLECULE": "COc1ccc(C(=O)Nc2cccc(CN3C(=O)[C@]4(O[C@H](CC(=O)N(CCO)Cc5ccccc5)[C@@H]([Si](C)(C)c5ccc(OC)cc5)[C@@H]4C)c4ccccc43)c2)cc1",
    "ANSWER LABEL": "f"
  },
  {
    "MOLECULE": "[N-]=[N+]=NCc1ccccc1C[C@@]1(C(N)=O)N=C(c2ccc(OCCCO)cc2)O[C@@H]1c1ccccc1N=[N+]=[N-]",
    "ANSWER LABEL": "t"
  },
  {
    "MOLECULE": "O=C1O[C@H](c2ccccc2)[C@H](c2ccccc2)N2[C@H]1[C@@H](C(=O)O)[C@]1(C(=O)Nc3ccccc31)[C@H]2c1ccc(OCCO)cc1",
    "ANSWER LABEL": "t"
  },
  {
    "MOLECULE": "COc1ccc([Si](C)(C)[C@@H]2[C@@H](CC(=O)N(CCO)Cc3ccccc3)O[C@]3(C(=O)N(Cc4cccc(I)c4)c4ccccc43)[C@H]2C)cc1",
    "ANSWER LABEL": "f"
  },
  {
    "MOLECULE": "Cc1ccc(S[C@]2(C(=O)NCc3ccccc3)CC(=O)N(Cc3ccccc3C(F)(F)F)[C@@H]2c2ccc(CO)cc2I)cc1",
    "ANSWER LABEL": "t"
  },
  {
    "MOLECULE": "C=CCC(OC(C)=O)[C@@H]1[C@@H](N(Cc2ccc(-c3ccccc3)cc2)C(=O)Cc2ccc(OC)cc2)c2cc(OCCCO)ccc2N1C(=O)Cc1ccc(OC)cc1 (stereo partly drawn)",
    "ANSWER LABEL": "t"
  },
  {
    "MOLECULE": "COC(=O)[C@@]1(Cc2ccc(OC)cc2)[C@H]2c3cc(C(=O)N(C)C)n(Cc4c(CO)[nH]cc(C)c4=O)c3C[C@H]2CN1C(=O)c1ccccc1",
    "ANSWER LABEL": "t"
  },
  {
    "MOLECULE": "COC(=O)C[C@H]1O[C@]2(C(=O)N(C)c3ccccc32)[C@@H](C)[C@@H]1[Si](C)(C)c1ccccc1",
    "ANSWER LABEL": "f"
  },
  {
    "MOLECULE": "COCCCNC(=O)[C@]1(Cc2ccccc2N=[N+]=[N-])N=C(c2ccc(OCCCO)cc2)O[C@@H]1c1ccccc1",
    "ANSWER LABEL": "t"
  },
  {
    "MOLECULE": "COC(=O)c1c2oc(c1C(=O)OC)C(=O)N[C@H](Cc1ccccc1)Cn1cc(nn1)C1(CCCCC1)NC(=O)N[C@H](CO)CC2",
    "ANSWER LABEL": "f"
  },
  {
    "MOLECULE": "CCOC(=O)C[C@H]1[C@H](OC(=O)Cc2ccc3c(c2)OCO3)[C@@H](NC(=O)CC(C)C)c2cc(OCCCO)ccc2N1C(=O)c1ccc2ccccc2n1",
    "ANSWER LABEL": "t"
  },
  {
    "MOLECULE": "COCCOC(=O)N1C(=O)[C@@]2(c3cc(C#CCC(C(=O)OC)C(=O)OC)ccc31)[C@H](C(=O)N1CCc3cc(OC)c(OC)cc3C1)[C@H]1C(=O)O[C@H](c3ccccc3)[C@H](c3ccccc3)N1[C@@H]2c1ccccc1OCCO",
    "ANSWER LABEL": "t"
  },
  {
    "MOLECULE": "COC(=O)[C@@]1(Cc2ccccc2)[C@H]2c3cc(C(=O)N(C)C)n(Cc4nc5ccccc5[nH]4)c3C[C@H]2CN1C(=O)c1ccccc1",
    "ANSWER LABEL": "t"
  },
  {
    "MOLECULE": "O=C(c1ccccc1)N1Cc2ccccc2C[C@@]2(N=C(c3ccc(OCCCO)cc3)O[C@H]2c2ccccc2)C1=O",
    "ANSWER LABEL": "t"
  },
  {
    "MOLECULE": "C[C@]1(C(=O)NCC(F)(F)F)c2ccccc2C(=O)N(Cc2cc(C(F)(F)F)cc(C(F)(F)F)c2)[C@H]1c1ccc(CO)cc1",
    "ANSWER LABEL": "f"
  },
  {
    "MOLECULE": "CCCCCN1CC=CC23O[C@@H]4/C=C\\CCCOC(=O)C4[C@H]2C(=O)N(CCCCCO)[C@@H]3C1=O (stereo partly drawn)",
    "ANSWER LABEL": "f"
  },
  {
    "MOLECULE": "COCCCNC(=O)[C@@]1(Cc2ccccc2I)c2ccccc2C(=O)N(Cc2ccccc2OC)[C@H]1c1ccc(CO)cc1",
    "ANSWER LABEL": "t"
  },
  {
    "MOLECULE": "C=CC[C@H](O)c1ccc(O)c(F)c1",
    "ANSWER LABEL": "f"
  },
  {
    "MOLECULE": "CO[C@H]1O[C@H](CO)[C@@H](OC(=O)Nc2cccc(F)c2)[C@H](OC(=O)c2cc3ccccc3[nH]2)[C@H]1OC(=O)c1cc2ccccc2[nH]1",
    "ANSWER LABEL": "t"
  },
  {
    "MOLECULE": "CC(C)(C)OC(=O)CC[C@]1(C(N)=O)N=C(c2ccc(OCCCO)cc2)O[C@H]1c1ccccc1N=[N+]=[N-]",
    "ANSWER LABEL": "t"
  },
  {
    "MOLECULE": "C=C[C@H](OC)[C@@H](O)c1ccc(OC)c(O)c1",
    "ANSWER LABEL": "f"
  },
  {
    "MOLECULE": "CCCCN1CC=CC23O[C@@H]4/C=C\\CCC(C)OC(=O)C4[C@H]2C(=O)N(CCO)[C@@H]3C1=O (stereo partly drawn)",
    "ANSWER LABEL": "f"
  },
  {
    "MOLECULE": "C=C(CCCC)C(=O)CC[C@@H](OC(C)=O)c1ccc(OCCO)cc1",
    "ANSWER LABEL": "f"
  },
  {
    "MOLECULE": "C=CC[C@H](O)c1ccc(O)c2ccccc12",
    "ANSWER LABEL": "t"
  },
  {
    "MOLECULE": "CO[C@H]1O[C@H](CO)[C@@H](OC(=O)Nc2ccccc2)[C@@H]2OC(=O)[C@@H](Cc3ccccc3)C/C=C/C[C@H](Cc3ccccc3)C(=O)O[C@@H]12",
    "ANSWER LABEL": "f"
  },
  {
    "MOLECULE": "COc1ccc(-c2cc3c(c(CCc4ccccc4)n2)[Si](C(C)C)(C(C)C)O[C@H]3c2ccccc2)cn1",
    "ANSWER LABEL": "f"
  }
]

###

# z-score listing for each entry below
ASSAY TEXT: E. coli growth modulation, two-sided OD650, primary screen, E. coli filamentation project, strain DRC41, 24 h (AID 1093);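 further: MC1000 strain lacking acrAB efflux and sulA so SOS filamentation is blocked; test concentration not given here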
TEST CONDITIONS: OD650, 24 h, higher = more signal, called active from +8 up or from −8 down
Activity calls are given as the source filed them.

[
  {
    "COMPOUND": "COc1cccc(C)c1NC(=O)O[C@H]1[C@H](OC(=O)Nc2ccccc2-c2ccccc2)[C@@H](OC(=O)Nc2ccccc2-c2ccccc2)[C@@H](OC)O[C@@H]1CO",
    "z-score": "-0.692 (inactive)"
  },
  {
    "COMPOUND": "O=C1OC[C@@H](c2ccccc2)n2cc(/C=C/c3ccccc3)cc21",
    "z-score": "1.45 (inactive)"
  },
  {
    "COMPOUND": "CCCN1C(=O)[C@@]2(c3ccc([N+](=O)[O-])cc3)CC(=O)N(C3CCCCC3)[C@@H]2c2ccc(CO)cc21",
    "z-score": "-0.0384 (inactive)"
  },
  {
    "COMPOUND": "O=C1NC(=O)C2C1C=CC(C(O)C(c1ccccc1)c1ccccc1)N2Nc1ccccn1 (configuration not stated)",
    "z-score": "-0.519 (inactive)"
  },
  {
    "COMPOUND": "C=CCNC(=O)[C@@H]1[C@H]2C(=O)O[C@H](c3ccccc3)[C@H](c3ccccc3)N2[C@H](c2ccc(O)cc2)[C@@]12C(=O)Nc1ccc(C#CC3=CCCCC3)cc12",
    "z-score": "-0.43 (inactive)"
  },
  {
    "COMPOUND": "Cc1ccc(S[C@]2(C(=O)NCc3ccccc3)CC(=O)N(Cc3ccccc3C(F)(F)F)[C@@H]2c2ccc(CO)cc2I)cc1",
    "z-score": "0.322 (inactive)"
  },
  {
    "COMPOUND": "C=C(CCCC)/C(=C/C[C@@H](OC(C)=O)c1ccc(OCCO)cc1)c1cc(C(=O)OC)ccc1OC",
    "z-score": "0.0811 (inactive)"
  }
]
